Biological target: His.Tag AcNPV DBP (Autographa californica nuclear polyhedrosis virus, UniProt P41430)
Construct: made in house; host or cells: E. coli BL21 (DE3)
Sequence (P41430 whole entry, looked up): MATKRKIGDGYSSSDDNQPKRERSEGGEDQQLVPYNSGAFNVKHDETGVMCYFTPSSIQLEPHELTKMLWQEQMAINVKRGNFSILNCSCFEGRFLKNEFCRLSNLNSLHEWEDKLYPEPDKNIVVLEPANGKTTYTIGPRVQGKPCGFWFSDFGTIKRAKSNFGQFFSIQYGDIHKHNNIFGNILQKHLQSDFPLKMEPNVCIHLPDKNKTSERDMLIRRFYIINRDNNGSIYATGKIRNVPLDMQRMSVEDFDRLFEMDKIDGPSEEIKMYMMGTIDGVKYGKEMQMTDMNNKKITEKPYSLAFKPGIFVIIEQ
Experiment: ELISA for His.Tag AcNPV DBP screening using the FliTrx protein solution
Type: binding, Autographa californica nucleopolyhedrovirus (AcNPV)
Settings: wells coated with FliTrx protein solution of positive clones; 6 μg His.Tag AcNPV DBP added; mean of duplicate; mean O.D. of negative controls 0.14
attribute_measured: ELISA (O.D. λ = 405 nm), affinity for His.Tag AcNPV DBP
Give only the figure.

                                        seq                               measured_on  test_value
0  ADYGKGLRRAMG (baculovirus) [Peptide ligand No. 3, FliTrx selected dodecapeptide ligand recognized by His.Tag AcNPV DBP]  His.Tag AcNPV DBP (Autographa californica nuclear polyhedrosis virus, UniProt P41430)        1.11
1  AMLRAACVVRSM (baculovirus) [Peptide ligand No. 2, FliTrx selected dodecapeptide ligand recognized by His.Tag AcNPV DBP]  His.Tag AcNPV DBP (Autographa californica nuclear polyhedrosis virus, UniProt P41430)        0.56
2  PAQAQTRRRRPR (baculovirus) [Peptide ligand No. 5, FliTrx selected dodecapeptide ligand recognized by His.Tag AcNPV DBP]  His.Tag AcNPV DBP (Autographa californica nuclear polyhedrosis virus, UniProt P41430)        1.35

Hi! What's the reported ELISA (O.D. λ = 405 nm), affinity for His.Tag AcNPV DBP for GGGGRRSGGACP (baculovirus) [Peptide ligand No. 4, FliTrx selected dodecapeptide ligand recognized by His.Tag AcNPV DBP] on His.Tag AcNPV DBP (Autographa californica nuclear polyhedrosis virus, UniProt P41430)? 1.13

AGRKGERGSVLQ (baculovirus) [Peptide ligand No. 1, FliTrx selected dodecapeptide ligand recognized by His.Tag AcNPV DBP] , same question. 1.21

The measurements presented in this section are drawn from patent US20060063917A1.
